Assay Text: Metabolic stability in mouse plasma assessed as compound remaining measured after 90 mins by LC-MS/MS analysis
Assay type: ADME, cell-free
Study Conditions: read-out: Stability
Endpoint: remaining at 1.5 h
Please answer using a numeric value trailed by its unit.

INSERT INTO results (compound, result_value) VALUES
  ('CC(C)[N+](C)(CCOC(=O)C1c2ccccc2Oc2ccccc21)C(C)C [PROPANTHELINE BROMIDE]', '10.3%');

Turning to the following compound.
So what's the measured remaining at 1.5 h for this one? CCCOC(=O)[C@@H]1Cc2cc(O)c(O)cc2[C@H](Cc2ccc(O)c(O)c2)N1C(=O)c1ccccc1Cl
91.5%

----------
I'd be grateful if you could share measured remaining at 0.5 h for these entries.
Assay Text: Metabolic stability in mouse plasma assessed as compound remaining measured after 30 mins by LC-MS/MS analysis
Format: ADME, cell-free
Study Conditions: read-out: Stability
One number for each entry, in %.

INSERT INTO assay_data (compound, result_value) VALUES
  ('CC(C)[N+](C)(CCOC(=O)C1c2ccccc2Oc2ccccc21)C(C)C [PROPANTHELINE BROMIDE]', 45.5);

So what's the measured remaining at 0.5 h for this one? CCCOC(=O)[C@@H]1Cc2cc(O)c(O)cc2[C@H](Cc2ccc(O)c(O)c2)N1C(=O)c1ccccc1Cl
100

----------
Assay Text: Half life in BALB/c nude mouse at 15 mg/kg, ip measured after 24 hrs by LC-MS/MS analysis
Assay type: ADME, organism-based
Study Conditions: in vivo
Endpoint: half-life (h)
Give bare numbers, in h.

So what's the measured half-life for this one? CCCOC(=O)[C@@H]1Cc2cc(O)c(O)cc2[C@H](Cc2ccc(O)c(O)c2)N1C(=O)c1ccccc1Cl
1.07

----------
Assay Text: Half life in BALB/c nude mouse at 10 mg/kg, po measured after 24 hrs by LC-MS/MS analysis
Type: ADME, organism-based
Study Conditions: in vivo
Endpoint: half-life (min)
One number for each entry, in min.

So what's the measured half-life for this one? CCCOC(=O)[C@@H]1Cc2cc(O)c(O)cc2[C@H](Cc2ccc(O)c(O)c2)N1C(=O)c1ccccc1Cl
49.2

----------
Assay Text: AUC (0 to t) in BALB/c nude mouse at 15 mg/kg, ip measured after 24 hrs by LC-MS/MS analysis
Assay type: ADME, organism-based
Set-up: time 24 hrs, dose 15 mg/kg, route ip
Study Conditions: in vivo
Endpoint: AUC(0-t) at 24 h (ng·h/mL)
One number for each entry, in ng·h/mL.

So what's the measured AUC(0-t) at 24 h for this one? CCCOC(=O)[C@@H]1Cc2cc(O)c(O)cc2[C@H](Cc2ccc(O)c(O)c2)N1C(=O)c1ccccc1Cl
791

----------
Test system: Influenza A virus
Assay Text: Antiviral activity against influenza A virus H3N2(JX/312) infected in MDCK cells assessed as inhibition of cytopathic effect incubated for 48 hrs by MTT assay
Assay type: functional, organism-based
I'd be grateful if you could share measured pEC50 for these entries.
One number for each entry, as −log10 of the molar value.

See these solved cases before continuing.
INSERT INTO measurements (compound, result_value) VALUES
  ('CCC(CC)[C@H](NC(C)=O)[C@@H]1[C@H](O)[C@@H](C(=O)O)C[C@H]1NC(=N)N [PERAMIVIR ANHYDROUS]', 3.67),
  ('COC(=O)[C@@H]1Cc2cc(O)c(O)cc2[C@H](Cc2ccc(O)c(O)c2)N1C(=O)c1ccccc1Cl', 6.04),
  ('CCCOC(=O)[C@@H]1Cc2cc(O)c(O)cc2[C@H](Cc2ccc(O)c(O)c2)N1C(=O)c1ccccc1Cl', 6.12);

Turning to the following compound.
So what's the measured pEC50 for this one? O=C(Nc1ccncc1)[C@@H]1Cc2cc(O)c(O)cc2[C@H](Cc2ccc(O)c(O)c2)N1C(=O)c1ccccc1Cl
6.02
